The compounds listed here are annotated with their pIC50.
- System: NCI-H358 cells
- RUN DESCRIPTION: NCI-H358 CTG proliferation assay (120 h) (NSCLC, G12C)
- Assay type: cell-based
- CONDITION INFO: Homo sapiens
// field semantics: pIC50 = negative decimal log of concentration (mol/L)

Below are worked cases with known answers.
C[C@H](Oc1nc(-c2noc3c2CCC[C@@]32CCCc3sc(N)c(C#N)c32)nc2c1CN(C1COC1)C[C@]21CCOC1)[C@@H]1CCCN1C ... 8.40
C[C@@H]1COC[C@H](n2c(=O)n(C)c3c(O[C@@H](C)[C@@H]4CCCN4C)nc(-c4onc5c4CCC[C@@]54CCCc5sc(N)c(C#N)c54)nc32)C1 ... 8.15
CO[C@H]1CCN(C)[C@@H]1[C@H](C)Oc1nc(-c2noc3c2CCC[C@@]32CCCc3sc(N)c(C#N)c32)nc2c1CN(C1COC1)C[C@]21CCOC1 ... 8.70
Cc1nn([C@@H]2CCOC2)c2nc(-c3onc4c3CCC[C@@]43CCCc4sc(N)c(C#N)c43)nc(O[C@@H](C)[C@@H]3CCCN3C)c12 ... 7.68
C[C@H](Oc1nc(-c2onc3c2CCC[C@@]32CCCc3sc(N)c(C#N)c32)nc2c1n(C)c(=O)n2C1COC1)[C@@H]1CCCN1C ... 7.03

Attention now turns to another entry.
Query (compound): `CO[C@@H]1C[C@@H]([C@H](C)Oc2nc(-c3onc4c3CCC[C@@]43CCCc4sc(N)c(C#N)c43)nc3c2n(C)c(=O)n3[C@@H]2CCCOC2)N(C)C1` ; field requested: pIC50
8.05

====

- System: Ba/F3 cells KRAS G12D
- RUN DESCRIPTION: Ba/F3 proliferation assay (KRAS G12D)
- Type: cell-based
- CONDITION INFO: Mus musculus, BaF3, 72 h, AlamarBlue viability
The following compounds are shown together with reported IC50 values.
Please respond with the number in nM and leave the unit unwritten.

C[C@@H]1COC[C@H](n2c(=O)n(C)c3c(O[C@@H](C)[C@@H]4CCCN4C)nc(-c4onc5c4CCC[C@@]54CCCc5sc(N)c(C#N)c54)nc32)C1 ... 17

# lookup: IC50 of `Cc1cc2c(O[C@@H](C)[C@@H]3CCCN3C)nc(-c3onc4c3CCC[C@@]43CCCc4sc(N)c(C#N)c43)nc2n1[C@@H]1CCOC1`
28

So what's the measured IC50 for this one? `Cc1nc2c(O[C@@H](C)[C@@H]3CCCN3C)nc(-c3onc4c3CCC[C@@]43CCCc4sc(N)c(C#N)c43)nc2n1[C@@H]1CCOC1`
24

// lookup IC50 for `C[C@H](Oc1nc(-c2onc3c2CCC[C@@]32CCCc3sc(N)c(C#N)c32)nc2c1n(C)c(=O)n2[C@@]12COC[C@@H]1C2)[C@@H]1CCCN1C`
14

Would you kindly share the measured IC50 for `CO[C@H]1CCN(C)[C@@H]1[C@H](C)Oc1nc(-c2onc3c2CCC[C@@]32CCCc3sc(N)c(C#N)c32)nc2c1n(C)c(=O)n2[C@@H]1CCCOC1` ?
9

# lookup: IC50 of `COCCn1c(=O)n(C)c2c(O[C@@H](C)[C@@H]3CCCN3C)nc(-c3onc4c3CCC[C@@]43CCCc4sc(N)c(C#N)c43)nc21`
204

====

- Test system: Ba/F3 cells KRAS G12C
- RUN DESCRIPTION: Ba/F3 proliferation assay (KRAS G12C)
- Assay type: cell-based
- CONDITION INFO: Mus musculus, BaF3, 72 h, AlamarBlue viability
REPORTED PROPERTY: log10 IC50 (log10 of the value in nM)
Hey, these are logged values: log10 of IC50, nM being the unit before logging.

Below are worked cases with known answers.
CC(C)n1c(=O)n([C@@H]2CCOC2)c2nc(-c3onc4c3CCC[C@@]43CCCc4sc(N)c(C#N)c43)nc(O[C@@H](C)[C@@H]3CCCN3C)c21 [I-32] ... 1.36
CO[C@@H]1C[C@@H]([C@H](C)Oc2nc(-c3onc4c3CCC[C@@]43CCCc4sc(N)c(C#N)c43)nc3c2CN(C2COC2)C[C@]32CCOC2)N(C)C1 [I-58] ... 0.60
CO[C@@H]1C[C@@H]([C@H](C)Oc2nc(-c3noc4c3CCC[C@@]43CCCc4sc(N)c(C#N)c43)nc3c2n(C)c(=O)n3[C@@]23COC[C@@H]2C3)N(C)C1 [II-6] ... 0.30

So what log10 IC50 did CCn1c(=O)n([C@@H]2CCCOC2)c2nc(-c3onc4c3CCC[C@@]43CCCc4sc(N)c(C#N)c43)nc(OCC34CCCN3CCC4)c21 [I-34] get with Ba/F3 cells KRAS G12C?
3.07

Form field: log10 IC50 recorded for CCn1c(=O)n([C@@H]2CCOC2)c2nc(-c3onc4c3CCC[C@@]43CCCc4sc(N)c(C#N)c43)nc(O[C@@H](C)[C@@H]3CCCN3C)c21 [I-21] with Ba/F3 cells KRAS G12C (enter value)
0.90

For the record C[C@H](Oc1nc(-c2onc3c2CCC[C@@]32CCCc3sc(N)c(C#N)c32)nc2c1n(C)c(=O)n2[C@@]12COC[C@@H]1C2)[C@@H]1CC[C@H](C)N1C [I-45] , what value of log10 IC50 is listed for Ba/F3 cells KRAS G12C?
0.00

====

- ASSAY SYSTEM: KRAS (G12D)::CRAF protein::protein interaction (Homo sapiens (Human), UniProt P01116, G12D)
- Sequence (P01116 other isoform, or with tags, fused parts or gaps G12D): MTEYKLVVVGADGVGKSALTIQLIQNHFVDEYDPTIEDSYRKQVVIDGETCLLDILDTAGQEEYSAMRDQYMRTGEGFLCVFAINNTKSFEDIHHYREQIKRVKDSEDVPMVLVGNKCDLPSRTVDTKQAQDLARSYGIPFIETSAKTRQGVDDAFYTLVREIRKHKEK
- RUN DESCRIPTION: KRAS TR-FRET assay (KRAS G12D::CRAF, GTP)
REPORTED PROPERTY: IC50 (nM)
Numbers only here, please. The scale is nM.

Worked set:
C[C@H](Oc1nc(-c2noc3c2CCC[C@@]32CCCc3sc(N)c(C#N)c32)nc2c1CCCO[C@]21CCOC1)[C@@H]1CCCN1C ... 128
C[C@H](Oc1nc(-c2noc3c2CCC[C@@]32CCCc3sc(N)c(C#N)c32)nc2c1CC[C@]21CNCCO1)[C@@H]1C[C@@H](F)CN1C ... 82

Give its IC50 value. Item: `Cc1nn([C@@H]2CCOC2)c2nc(-c3onc4c3CCC[C@@]43CCCc4sc(N)c(C#N)c43)nc(O[C@@H](C)[C@@H]3CCCN3C)c12`
263

====

- System: Ba/F3 cells KRAS G12D
- RUN DESCRIPTION: Ba/F3 proliferation assay (KRAS G12D)
- Type: cell-based
- CONDITION INFO: Mus musculus, BaF3, 72 h, AlamarBlue viability
REPORTED PROPERTY: pIC50
Note on pIC50: it is the negative log10 of concentration, concentration in mol/L.

// worked examples, pIC50 included
C[C@H](Oc1nc(-c2onc3c2CCC[C@@]32CCCc3sc(N)c(C#N)c32)nc2c1COC[C@]21CCOC1)[C@@H]1CCCN1C [I-54] ... 8.40
CCn1c(=O)n([C@@H]2CCCOC2)c2nc(-c3onc4c3CCC[C@@]43CCCc4sc(N)c(C#N)c43)nc(OCC34CCCN3CCC4)c21 [I-34] ... 5.52
CO[C@@H]1C[C@@H]([C@H](C)Oc2nc(-c3noc4c3CCC[C@@]43CCCc4sc(N)c(C#N)c43)nc3c2COC[C@]32CCOC2)N(C)C1 [II-11] ... 8.40
Cc1cn([C@@H]2CCOC2)c2nc(-c3onc4c3CCC[C@@]43CCCc4sc(N)c(C#N)c43)nc(O[C@@H](C)[C@@H]3CCCN3C)c12 [I-41] ... 6.97
CO[C@@H]1C[C@@H]([C@H](C)Oc2nc(-c3onc4c3CCC[C@@]43CCCc4sc(N)c(C#N)c43)nc3c2CN(C2COC2)C[C@]32CCOC2)N(C)C1 [I-58] ... 7.66

Any idea what pIC50 was measured for C[C@H](Oc1nc(-c2onc3c2CCC[C@@]32CCCc3sc(N)c(C#N)c32)nc2c1n(C)c(=O)n2[C@H]1CO[C@@H](C)C1)[C@@H]1CC[C@H](C)N1C [I-50] ?
8.40

====

- Test system: NCI-H358 cells
- RUN DESCRIPTION: NCI-H358 CTG proliferation assay (120 h) (NSCLC, G12C)
- Assay type: cell-based
- CONDITION INFO: Homo sapiens
Measured IC50 values are reported for all entries that follow.
The response must be a number in µM with no trailing unit.

Check out these entries, answers already filled in.
C[C@H](Oc1nc(-c2onc3c2CCC[C@@]32CCCc3sc(N)c(C#N)c32)nc2c1n(C)c(=O)n2[C@H]1CCCOC1)[C@@H]1CCCN1C ... 0.387
C[C@H](Oc1nc(-c2onc3c2CCC[C@@]32CCCc3sc(N)c(C#N)c32)nc2c1n(C)c(=O)n2C1CCOCC1)[C@@H]1CCCN1C ... 0.042
C[C@H](Oc1nc(-c2noc3c2CCC[C@@]32CCCc3sc(N)c(C#N)c32)nc2c1n(C)c(=O)n2[C@@H]1CCOC1)[C@@H]1CCCN1C ... 0.004

Which IC50 is reported for this compound? `C[C@H](Oc1nc(-c2onc3c2CCC[C@@]32CCCc3sc(N)c(C#N)c32)nc2c1CN(C1COC1)C[C@]21CCOC1)[C@@H]1CCCN1C`
0.006

Look up IC50: `C[C@H](Oc1nc(-c2noc3c2CCC[C@@]32CCCc3sc(N)c(C#N)c32)nc2c1COC[C@@]21CCOC1)[C@@H]1CCCN1C`
0.074

Tell me the measured IC50 of `CCn1c(=O)n([C@@H]2CCCOC2)c2nc(-c3onc4c3CCC[C@@]43CCCc4sc(N)c(C#N)c43)nc(OC[C@@]34CCCN3C[C@H](F)C4)c21` , please.
0.921

Request the reported IC50 associated with `C[C@H](Oc1nc(-c2onc3c2CCC[C@@]32CCCc3sc(N)c(C#N)c32)nc2c1N(C)C(=O)CN2[C@@H]1CCOC1)[C@@H]1CCCN1C`
0.232

Record request: IC50 value, item `C[C@H](Oc1nc(-c2noc3c2CCC[C@@]32CCCc3sc(N)c(C#N)c32)nc2c1CCO[C@]21CCOC1)[C@@H]1CCCN1C`
0.005

Dear colleague, I am looking for the recorded IC50 of the following compound: `C[C@H](Oc1nc(-c2onc3c2CCC[C@@]32CCCc3sc(N)c(C#N)c32)nc2c1n(C)c(=O)n2[C@@H]1CCOC1)[C@@H]1CC[C@H](C)N1C`
0.007

Given the compound `C[C@H](Oc1nc(-c2noc3c2CCC[C@@]32CCCc3sc(N)c(C#N)c32)nc2c1CN(c1ncccn1)[C@@]21CCOC1)[C@@H]1CCCN1C` , what is its reported IC50?
0.106

What value of measured IC50 is listed for `C[C@H](Oc1nc(-c2onc3c2CCC[C@@]32CCCc3sc(N)c(C#N)c32)nc2c1n(C)c(=O)n2[C@@]12COC[C@@H]1C2)[C@@H]1CCCN1C` ?
0.002

So what does the record say about IC50 for `C[C@H](Oc1nc(-c2onc3c2CCC[C@@]32CCCc3sc(N)c(C#N)c32)nc2c1n(C)c(=O)n2[C@@H]1CCOC1)[C@@H]1C[C@@H]2C[C@@H]2N1C` ?
0.055
